# Experiment: Solubility in compendial aqueous media
# Format: physicochemical
# Condition Parameters: aqueous buffer, kinetic from dmso stock, Acetate Buffer (pH = 4.5), 37 °C, mean ± standard deviation, n = 3
Observable: solubility at 30 min
Answer with the number, then the unit.

// query Consider the compound COc1cccc(/C=N/NC(=O)c2ccncc2)c1O [HL] . State its measured solubility at 30 min.
// result 3.49 µg/mL

---

# Test system: NCI-H1573 lung adenocarcinoma cell line
# Experiment: Alamar blue cell viability assay
# Type: cell-based
# Condition Parameters: 48 h treatment, 10 µM, relative to untreated control
Observable: Viability % (%)
Just the number please, in %, no unit attached.

The cases that follow already have their Viability % on record.
Compound: COc1cccc(C=NNC(=O)c2ccncc2)c1[O-].COc1cccc(C=NNC(=O)c2ccncc2)c1[O-].[Co+2] [complex 5, [Co(L)2]]
Recorded Measurement: 89.79
//
Compound: COc1cccc(C=NNC(=O)c2ccncc2)c1[O-].O.O=[N+]([O-])[O-].[Cu+2] [complex 3, [Cu(L)(NO3)]·H2O]
Recorded Measurement: 12.14
//
Compound: COc1cccc(C=NNC(=O)c2ccncc2)c1[O-].COc1cccc(C=NNC(=O)c2ccncc2)c1[O-].[Zn+2] [complex 6, [Zn(L)2]]
Recorded Measurement: 33.77
//
Compound: COc1cccc(C=NNC(=O)c2ccncc2)c1[O-].[Cl-].[Pt+2] [complex 8, [Pt(L)(Cl)]]
Recorded Measurement: 20.34
//
Compound: CC(=O)[O-].COc1cccc(C=NNC(=O)c2ccncc2)c1[O-].[Cu+2] [complex 2, [Cu(L)(CH3COO)]]
Recorded Measurement: 7.22

Here is the next item to consider.
// query Find Viability % for COc1cccc(C=NNC(=O)c2ccncc2)c1[O-].O.[Cu+2].[O-][Cl+3]([O-])([O-])[O-] [complex 4, [Cu(L)(ClO4)]·H2O] on NCI-H1573 lung adenocarcinoma cell line and write it down.
// result 10.05
